Study System: SpRvs167
Protocol Notes: SPOT peptide array binding signal intensity (averaged, normalized) (arbitrary units (background-subtracted, floor 0; scale differs between SH3 domains)); higher = stronger binding of the SH3 domain to the peptide
Parameter class (string): assigned from measured SPOT peptide array binding signal intensity. Ranges: class 0 (below 70), class 1 (70 to below 1000), class 2 (1000 or more)

Q. Where would QDKEGIPPDQQRLIF land among the classes by reported SPOT peptide array binding signal intensity?
A. class 0

Q. Where would RRRIAYPFYPFKKLG land among the classes by reported SPOT peptide array binding signal intensity?
A. class 0

Q. Where would NHSRSLFSLPGNQQS land among the classes by reported SPOT peptide array binding signal intensity?
A. class 1

Q. Where would KNPRRQLQIPRQQPS land among the classes by reported SPOT peptide array binding signal intensity?
A. class 0

Q. Where would QQEQNTPPLPPKPKS land among the classes by reported SPOT peptide array binding signal intensity?
A. class 1

Q. Where would TPTSGPPLLPPRNTM land among the classes by reported SPOT peptide array binding signal intensity?
A. class 2

Q. Where would QNTPPLPPKPKSPHL land among the classes by reported SPOT peptide array binding signal intensity?
A. class 2

Q. Where would ISPPASPPPEFDFSK land among the classes by reported SPOT peptide array binding signal intensity?
A. class 0

Q. Where would SGVRLPAPPPPPRRG land among the classes by reported SPOT peptide array binding signal intensity?
A. class 2

Q. Where would AAAPKHAPPPVPNET land among the classes by reported SPOT peptide array binding signal intensity?
A. class 0

Q. Where would KTKQQKPAIPQKKSF land among the classes by reported SPOT peptide array binding signal intensity?
A. class 0

Q. Where would AERNYAPRLPRRETS land among the classes by reported SPOT peptide array binding signal intensity?
A. class 2

Q. Where would RRGPAPPPPPRASRP land among the classes by reported SPOT peptide array binding signal intensity?
A. class 2

Q. Where would NGRRRPKFRVQLSGN land among the classes by reported SPOT peptide array binding signal intensity?
A. class 0

Q. Where would NNQRRKPLLLNIGDH land among the classes by reported SPOT peptide array binding signal intensity?
A. class 0

Q. Where would RKNRAPPQRPRFNRD land among the classes by reported SPOT peptide array binding signal intensity?
A. class 1

Q. Where would NTMKKRPAPPSLPSL land among the classes by reported SPOT peptide array binding signal intensity?
A. class 1

Q. Where would PAPPPPPRASRPTPN land among the classes by reported SPOT peptide array binding signal intensity?
A. class 1

Q. Where would VPVAPPPPPASLGQS land among the classes by reported SPOT peptide array binding signal intensity?
A. class 0

Q. Where would TKHKAPPPPPPTAET land among the classes by reported SPOT peptide array binding signal intensity?
A. class 0

Q. Where would RKRAPTPPAPSRSEK land among the classes by reported SPOT peptide array binding signal intensity?
A. class 1

Q. Where would AATTSTPPLPRRRAT land among the classes by reported SPOT peptide array binding signal intensity?
A. class 2

Q. Where would KDKSRPPRPPPKPLH land among the classes by reported SPOT peptide array binding signal intensity?
A. class 1

Q. Where would FYNRTAFQLPGDARV land among the classes by reported SPOT peptide array binding signal intensity?
A. class 0

Q. Where would LLLLFVPDSPYDPAI land among the classes by reported SPOT peptide array binding signal intensity?
A. class 0

Q. Where would PIVPSSPAPPLPLSG land among the classes by reported SPOT peptide array binding signal intensity?
A. class 0

Q. Where would RPVPRRPSQPLNTLS land among the classes by reported SPOT peptide array binding signal intensity?
A. class 2

Q. Where would GAGERPRLVPRPINV land among the classes by reported SPOT peptide array binding signal intensity?
A. class 0
